tested on: RPMI 8402; assay: Inhibitory concentration against lymphoblast RPMI 8402 cell line was determined; format: functional, cell-based; conditions: Homo sapiens
pIC50: −log10 of the molar value.
Outcome: Met for pIC50 of at least 8; Not met for anything lower.

Is pIC50 for `COc1cc2c(=O)n(CCN3CCN(Cc4ccccc4)CC3)c3c4cc5c(cc4ncc3c2cc1OC)OCO5` at or above 8?
Not met

###

molecular target: DNA topoisomerase 1 (Homo sapiens); experiment: Relative topoisomerase I-mediated plasmid DNA cleavage compared to topotecan; type: functional
# Lookup of reported Activity keyed by entry
Output spec: single numeric token, no unit.

Worked cases, Activity given:
1) CCNCCn1c(=O)c2cc(OC)c(OC)cc2c2cnc3cc4c(cc3c21)OCO4 : 0.1
2) COc1cc2c(=O)n(CCN3CCN(Cc4ccccc4)CC3)c3c4cc5c(cc4ncc3c2cc1OC)OCO5 : 1000

// moving on: another record for Activity
// Activity (DNA topoisomerase 1 (Homo sapiens)) for `COc1cc2c(=O)n(CCN(C(C)C)C(C)C)c3c4cc5c(cc4ncc3c2cc1OC)OCO5` = 4.7

###

test system: RPMI 8402; assay: Inhibitory concentration against lymphoblast RPMI 8402 cell line was determined; assay type: functional, cell-based; settings: Homo sapiens
Field 'label' (enum: yes / no). Set to yes when IC50 is strictly under 4 nM; else no.

# count of solved cases: 3
1. COc1cc2c(=O)n(CCN3CCNCC3)c3c4cc5c(cc4ncc3c2cc1OC)OCO5 : no
2. COc1cc2c(=O)n(CCN(C)C(C)C)c3c4cc5c(cc4ncc3c2cc1OC)OCO5 : no
3. CCN(CCn1c(=O)c2cc(OC)c(OC)cc2c2cnc3cc4c(cc3c21)OCO4)C(C)C : no

Below: the item to evaluate.
Record `CCNCCn1c(=O)c2cc(OC)c(OC)cc2c2cnc3cc4c(cc3c21)OCO4` : is its IC50 strictly below 4 nM?
yes

###

assay: Inhibitory concentration against KB/V-1 cells overexpress MDR1; assay type: functional, cell-based; conditions: Homo sapiens
Field 'label' (enum: Yes / No). Set to Yes when IC50 is strictly under 300 nM; else No.

# count of solved cases: 3
1. COc1cc2c(=O)n(CCN(Cc3ccccc3)Cc3ccccc3)c3c4cc5c(cc4ncc3c2cc1OC)OCO5 : No
2. COc1cc2c(=O)n(CCN3CCN(C)CC3)c3c4cc5c(cc4ncc3c2cc1OC)OCO5 : No
3. COc1cc2c(=O)n(CCN3CCCCC3)c3c4cc5c(cc4ncc3c2cc1OC)OCO5 : Yes

Record `COc1cc2c(=O)n(CCN3CCN(Cc4ccccc4)CC3)c3c4cc5c(cc4ncc3c2cc1OC)OCO5` : is its IC50 strictly below 300 nM?
No

Record `COc1cc2c(=O)n(CCN(Cc3ccccc3)C(C)(C)C)c3c4cc5c(cc4ncc3c2cc1OC)OCO5` : is its IC50 strictly below 300 nM?
No

Record `COc1cc2c(=O)n(CCN3CCNCC3)c3c4cc5c(cc4ncc3c2cc1OC)OCO5` : is its IC50 strictly below 300 nM?
No

###

test system: RPMI 8402; experiment: Cytotoxicity against camptothecin-resistant RPMI 8402; format: functional, cell-based; conditions: Homo sapiens
measured-parameter: pIC50
Would you please state pIC50, meaning minus log10 of the concentration in mol/L, as a bare number?

Worked cases, pIC50 given:
1. CCN(CCn1c(=O)c2cc(OC)c(OC)cc2c2cnc3cc4c(cc3c21)OCO4)C(C)C : 6.51
2. COc1cc2c(=O)n(CCNC(C)C)c3c4cc5c(cc4ncc3c2cc1OC)OCO5 : 6.74
3. COc1cc2c(=O)n(CCN3CCCCC3)c3c4cc5c(cc4ncc3c2cc1OC)OCO5 : 6.40
4. CCNCCn1c(=O)c2cc(OC)c(OC)cc2c2cnc3cc4c(cc3c21)OCO4 : 6.77
5. COc1cc2c(=O)n(CCN3CCN(Cc4ccccc4)CC3)c3c4cc5c(cc4ncc3c2cc1OC)OCO5 : 6.15

pIC50 reading for `COc1cc2c(=O)n(CCN)c3c4cc5c(cc4ncc3c2cc1OC)OCO5` : 6.60

pIC50 reading for `CCN(CCn1c(=O)c2cc(OC)c(OC)cc2c2cnc3cc4c(cc3c21)OCO4)Cc1ccccc1` : 5.12

pIC50 reading for `COc1cc2c(=O)n(CCN(Cc3ccccc3)C(C)(C)C)c3c4cc5c(cc4ncc3c2cc1OC)OCO5` : 5.24

pIC50 reading for `COc1cc2c(=O)n(CCN(Cc3ccccc3)Cc3ccccc3)c3c4cc5c(cc4ncc3c2cc1OC)OCO5` : 5.71

pIC50 reading for `COc1cc2c(=O)n(CCN(C(C)C)C(C)C)c3c4cc5c(cc4ncc3c2cc1OC)OCO5` : 6.22
